- Test system: MOLT-4 leukemia
- ASSAY REMARKS: NCI tumour cell line growth inhibition, 48 h
TGI overview

Here are 6 molecules together with their reported answers.
COc1cccc(C2C(C#N)=C(N)Oc3c2ccc2ccccc32)c1 (stereo not drawn)
17.8 µM
O=c1[nH]c2cc3cccnc3c(Cl)c2nc1CBr
> 100 µM
Cn1nnc2c(C(N)=O)ncn2c1=O
> 100 µM
CN1Cc2c(nc(-c3ccc(Br)cc3)c[n+]2[O-])N(C)C1
> 100 µM
C=CCCCOC1[C@H](OCc2ccccc2)C(OCc2ccccc2)C(OC)O[C@@H]1CNC(=O)c1cccc(I)c1 (stereo partly drawn)
> 100 µM
Cc1oc2c(c1C(=O)N1CC[C@@H](N)C1)C(=O)c1c(c(O)c3ccccc3c1O)C2=O
1.96 µM

Can you share its TGI? I mean this molecule: `N#Cc1c(Nc2nc3ccccc3s2)c2ccccc2n2c1nc1ccccc12`
> 100 µM

// next record O/N=C1/C2CC3CC1(c1ccccc1)CC(/C3=N/O)/C2=N\O (stereo not drawn)
> 100 µM

// next record `COC(=O)/C(C#N)=C1\CCc2ccccc21`
> 100 µM

// next record `O=S(=O)(NC1=NCCN1C(=S)SN1CCn2c1nsc2=S)c1cccc(OC(F)(F)F)c1`
10.8 µM

// next record `C=CCC1(CC)C(=O)NC(=O)NC1=O`
> 100 µM

// next record `COc1ccc2c(c1)/C(=C\c1c[nH]c3ccc(OC)cc13)C(=O)N2`
8.14 µM

// next record `COc1ccc(/C(=N/Nc2nc3ccccc3[nH]2)C(=O)O)cc1`
> 100 µM

// next record `Clc1ccccc1NN(Cc1ccncc1)c1ccccc1Cl`
33.9 µM

// next record CC(=O)Nc1ccc(C(=O)NN2C(=O)C(Cl)C2c2ccc(O)cc2)cc1 (stereo not drawn)
> 100 µM

// next record `Cc1ccc(N=C2SC(c3ccc(C)cc3)(c3ccc(C)cc3)c3ccccc32)cc1`
> 100 µM

// next record COc1cc(C2CC(=O)Nc3c2cc(Br)c2ccccc32)cc(Br)c1OC (stereo not drawn)
> 47.6 µM

// next record C#C[C@H]1CCCCCC1O (stereo partly drawn)
> 100 µM

// next record `CC(=O)O.CC(=O)O.CC(=O)O.CC(=O)O.[Rh].[Rh]`
47 µM

// next record `NC(=O)C12CC3CC(CC(Br)(C3)C1)C2`
> 100 µM

// next record C#CCSc1nc(N)c2ncn(C3OC(COP(=O)(O)O)C(O)C3O)c2n1 (stereo not drawn)
> 239 µM

// next record `NS(=O)(=O)c1cccc(-c2ccc3c(NC(=O)C4CC4)n[nH]c3c2)c1`
> 25 µM

// next record `Cc1c(C#N)c2nnn(-c3ccccc3)c(=O)n2c1-c1ccccc1`
30.5 µM

* * *

- Test system: NCI-H522 lung
- ASSAY REMARKS: NCI tumour cell line growth inhibition, 48 h
TGI below 20 µM gives 0.0; TGI at or above it gives 1.0.

Reported TGI at or above 20 µM? CC(=O)C12C[C@](C#N)(N3CCCCCC3)C1C=Cc1ccccc12 (stereo partly specified)
1.0

// next record CC(C)C(C/C=C1/CC(CO)(COC(=O)C2CCCCC2)OC1=O)C(C)C (stereo unspecified)
1.0

// next record CCN1C(=O)N(CC)C2C1NN=c1s/c(=C\c3ccc[nH]3)c(=O)n12 (stereo unspecified)
0.0

// next record `COC(=O)/C(C#N)=C1\CCc2ccccc21`
1.0

// next record `O=C(/C=C(\O)c1ccccc1)/C(=C/C(=O)c1ccccc1)NN=C(c1ccccc1)c1ccccc1`
1.0

// next record `CCOC(=O)c1c(NCc2ccccc2)n(-c2ccccc2)c(=S)n(-c2ccccc2)c1=O`
1.0

// next record `O=S(=O)(NC1=NCCN1C(=S)SN1CCn2c1nsc2=S)c1cccc(OC(F)(F)F)c1`
1.0

* * *

- Tested on: OVCAR-3 ovarian
- ASSAY REMARKS: NCI tumour cell line growth inhibition, 48 h
PROPERTY: TGI (µM)
Supply the numeric figure in µM, leaving out any unit text.

Here are 4 compounds together with their reported answers.
C=CC(C)(C)c1cc([C@@H]2COc3cc(O)ccc3C2=O)c(O)c(O)c1OC
29.3
COCCOCOC(C)(C)[C@H](CCOC(C)=O)O[Si](c1ccccc1)(c1ccccc1)C(C)(C)C
53.6
CCN(CC)CCCC(C)Nc1c(-c2ccccc2)cnc2cc(Cl)ccc12 (stereo not given)
26.5
O=C1/C(=C/c2cccc(Br)c2)COc2ccc(O)c(O)c21
2.07

Can you share its TGI? I mean this compound: CCC1C(=O)OCc2c1cc1n(c2=O)C(CC)c2c-1nc1ccccc1c2Cl (stereo not given)
47.5

* * *

- Tested on: U251 CNS
- ASSAY REMARKS: NCI tumour cell line growth inhibition, 48 h
PROPERTY: TGI

Here are 6 compounds together with their reported answers.
Nc1ccc(-c2nc3ccc(F)cc3s2)cc1
> 100 µM
O=C(Nc1cnc(C(F)(F)F)cn1)c1cc(Cl)ccc1O
> 100 µM
COc1cc2c(cc1-c1coc3cc(OCC=C(C)C)ccc3c1=O)OCO2
> 100 µM
COc1cc(C(c2cccc3ccccc23)N2C(=O)CCC2C(=O)NCc2ccccc2)cc(OC)c1OC (configuration not stated)
> 100 µM
CNC(=S)N/N=C(\C)c1nc2ncccc2[nH]1
> 100 µM
CCC(=O)NC(OCC1(CC)COC1)(C(F)(F)F)C(F)(F)F
> 100 µM

Continue with the next compound.
So what TGI did `ONC1=Nc2ccccc2OCc2cc(Br)c(Br)cc2COc2ccccc2N=C1NO` get with U251 CNS?
41.8 µM

* * *

- Tested on: SK-MEL-5 melanoma
- ASSAY REMARKS: NCI tumour cell line growth inhibition, 48 h
log10 TGI overview
On a log10 scale: recorded TGI, unit µM.

Here are 3 compounds together with their reported answers.
CC/C=C\C/C=C/C=C1/C(=O)C=C[C@@H]1C/C=C\CCCC(=O)OC
0.61
CCOC(=O)C1=C(C)N2C(=NC3=C(CCC/C3=C\c3ccc(Cl)cc3)C2c2ccc(Cl)cc2)S1 (stereo not given)
1.06
COc1ccc(-c2onc(-c3c(C)cc(C)cc3C)c2C2=NCCN2)cc1
1.56

Can you share its log10 TGI? I mean this compound: `O=C(N/C(=C\c1cc(Cl)ccc1Cl)c1nc2ccc(Cl)cc2[nH]1)c1ccccc1`
1.41

// next record `COc1ccc(Oc2ccccc2NC(=O)CNC(=O)c2cccc3ccccc23)cc1`
0.92

// next record `C=CC(C)(C)c1cc([C@@H]2COc3cc(O)ccc3C2=O)c(O)c(O)c1OC`
1.61

// next record `CCCCc1ccc(-n2sc3ncccc3c2=O)cc1`
1.42

// next record `Cc1ccc(Sc2oc(-c3ccc(C)cc3)nc2[P+](c2ccccc2)(c2ccccc2)c2ccccc2)cc1`
-0.11

// next record `O=c1[nH]cnc2sc(=S)c3c(c12)CCC3`
1.62

// next record `O=C(Nc1ccccc1Cl)c1cccc(NC2=C(Cl)C(=O)N(Cc3ccccc3)C2=O)c1`
1.71

// next record `CN1CCN(c2cc3nc4ccccc4n(-c4ccc(Cl)cc4)c-3cc2=N)CC1`
1.51

// next record `COc1ccc(Cc2nc3ccccc3s2)cc1OC`
1.48

// next record `N.N.N.N.N.O=S(=O)([O-])C(F)(F)F.O=S(=O)([O-])C(F)(F)F.[Os+8]`
1.53

* * *

- Tested on: T-47D breast
- ASSAY REMARKS: NCI tumour cell line growth inhibition, 48 h; in the data active = GI50 below about 0.43 µM; inactive = the rest
Respond with a class label; see TRUE = active, FALSE = inactive

Oc1c(Cl)cc(Cl)c2cccnc12
FALSE
CCOC1OC(=O)[C@H]2[C@@H]1[C@@H]1CC[C@H]2O1 (some centres undefined)
FALSE
Cc1cc(NC(=O)c2cnc(N3CCN(CCOCCOCCOCCOCCC(=O)N[C@H](C(=O)N4C[C@H](O)C[C@H]4C(=O)N[C@@H](C)c4ccc(-c5scnc5C)cc4)C(C)(C)C)CC3)cn2)c2ncccc2c1
FALSE
COc1cccc(CC(C)=C(c2ccc(OCCCN(C)C)cc2)c2ccc(OCCCN(C)C)cc2)c1
FALSE
CC(=O)O.CC(=O)O.CC(=O)O.CC(=O)O.[Rh].[Rh]
FALSE

Can you look up the reported call for `Cc1oc2c(c1C(=O)N1CC[C@@H](N)C1)C(=O)c1c(c(O)c3ccccc3c1O)C2=O` for me?
FALSE

// next record `Cc1c2ccncc2c(C)c2c1c1cc(CO)ccc1n2C`
TRUE

// next record `Nc1ncccc1-c1nc2ccc(-c3ccccc3)nc2n1-c1ccc(C2(N)CCC2)cc1`
TRUE

// next record `O=c1c(-c2ccccc2)coc2cc(OC/C(=N/O)c3ccc(F)cc3)ccc12`
FALSE

* * *

- Tested on: SF-268 CNS
- ASSAY REMARKS: NCI tumour cell line growth inhibition, 48 h
PROPERTY: TGI

Cc1ccc(SC[C@@]2(C(F)F)NC(=O)NC2=O)cc1
> 100 µM
COC(=O)/C=C/c1cc(OC)c2oc(-c3ccc(OC)c(OC)c3)c(C(=O)OC)c2c1
> 100 µM
O=C(O)[C@@H](NS(=O)(=O)c1ccc2ccccc2c1)c1ccccc1
> 100 µM
COC(=O)/C(=C\c1ccco1)P(=O)(OC)OC
> 100 µM
COP(=O)(OC)C(NC=O)P(=O)(OC)OC
> 100 µM

Can you share its TGI? I mean this compound: Cn1c2c(c3ccccc31)CCN1C(=O)C3SC21C1C(=O)N(c2ccccc2)C(=O)C31 (stereo not given)
> 100 µM

// next record Cc1nn(C(=O)c2ccncc2)c2c1C(c1cccc([N+](=O)[O-])c1)SC(N)=N2 (stereo not given)
> 10 µM

// next record `CC(=O)Nc1ccc(C(=O)N2N=C(C)/C(=C/c3cccc([N+](=O)[O-])c3)C2=O)cc1`
> 100 µM

Provenance of the data: PubChem BioAssay (NCI)
